procedure_summary: Example 5: survival/recovery of sockeye after exposure to sodium azide, 20-day bioassays
Type: in vivo, Oncorhynchus nerka
experimental_conditions: sockeye salmon, in vivo; exposed for 16 hours or less; end of 20-day bioassays
Description: Stickleback subjected to the same test conditions experienced almost 100% mortality.
reported_endpoint: survival at 480 h (%)
Report only the number, with the unit % understood.

Lookup: Please report the recorded survival at 480 h for [N-]=[N+]=[N-] [sodium azide] .
Found: 100
